The reported measurements were obtained from ChEMBL document CHEMBL3734726.

experiment: Cytotoxicity against african green monkey Vero cells assessed as cell viability at 2 ug/ml after 24 hrs by eosin staining based microscopy; conditions: chlorocebus sabaeus, read-out: Activity
measurement-name: viability at 24 h, 2 ug/ml

### Prompt What value of measured viability at 24 h, 2 ug/ml is listed for CC(C)C1=C(O)C(=O)C2=C(C=C[C@@H]3[C@]24CCC[C@]3(C)C(=O)OC4)C1=O ?
### Response 99.5%

### Prompt One more compound: CC(C)C1=C(O[Si](C)(C)C)C(=O)C2=C(C=C[C@@H]3[C@]24CCC[C@]3(C)C(=O)OC4)C1=O
### Response 99.6%

### Prompt One more compound: C=CCOC1=C(C(C)C)C(=O)C2=C(C1=O)[C@]13CCC[C@](C)(C(=O)OC1)[C@@H]3C=C2
### Response 99.6%

### Prompt One more compound: CC(=O)OC1=C(C(C)C)C(=O)C2=C(C1=O)[C@]13CCC[C@](C)(C(=O)OC1)[C@@H]3C=C2
### Response 99.7%

* * *

assay: Cytotoxicity against african green monkey Vero cells assessed as cell viability at 5 ug/ml after 24 hrs by eosin staining based microscopy; conditions: chlorocebus sabaeus, read-out: Activity
measurement-name: viability at 24 h, 5 ug/ml (%)
API: value field is a number in %; no unit string.

### Prompt What value of measured viability at 24 h, 5 ug/ml is listed for C=CCOC1=C(C(C)C)C(=O)C2=C(C1=O)[C@]13CCC[C@](C)(C(=O)OC1)[C@@H]3C=C2 ?
### Response 99.1

### Prompt One more compound: CC(C)C1=C(O)C(=O)C2=C(C=C[C@@H]3[C@]24CCC[C@]3(C)C(=O)OC4)C1=O
### Response 98.8

### Prompt One more compound: CC(C)C1=C(O[Si](C)(C)C)C(=O)C2=C(C=C[C@@H]3[C@]24CCC[C@]3(C)C(=O)OC4)C1=O
### Response 99.1

### Prompt One more compound: CC(=O)OC1=C(C(C)C)C(=O)C2=C(C1=O)[C@]13CCC[C@](C)(C(=O)OC1)[C@@H]3C=C2
### Response 99.2

* * *

assay: Cytotoxicity against african green monkey Vero cells assessed as cell viability at 1 ug/ml after 24 hrs by eosin staining based microscopy; conditions: chlorocebus sabaeus, read-out: Activity
Field: viability at 24 h, 1 ug/ml. Provide a value for each of the compounds that follow.
API: value field is a number in %; no unit string.

### Prompt What value of measured viability at 24 h, 1 ug/ml is listed for CC(C)C1=C(O[Si](C)(C)C)C(=O)C2=C(C=C[C@@H]3[C@]24CCC[C@]3(C)C(=O)OC4)C1=O ?
### Response 99.7

### Prompt One more compound: CC(C)C1=C(O)C(=O)C2=C(C=C[C@@H]3[C@]24CCC[C@]3(C)C(=O)OC4)C1=O
### Response 99.2

### Prompt One more compound: C=CCOC1=C(C(C)C)C(=O)C2=C(C1=O)[C@]13CCC[C@](C)(C(=O)OC1)[C@@H]3C=C2
### Response 99.8

### Prompt One more compound: CC(=O)OC1=C(C(C)C)C(=O)C2=C(C1=O)[C@]13CCC[C@](C)(C(=O)OC1)[C@@H]3C=C2
### Response 99.8
